# Tested on: MCF-7 cells
# measurement_notes: MTT cytotoxicity assay, MCF-7
# Assay type: cell-based
# condition_details: Homo sapiens, MCF7, incubation time 72 h, mean ± SD (n = 3)
pIC50: −log10 of the molar value.
Please mark class 1 if the recorded pIC50 is equal to or greater than 4, and class 0 if it falls below.

molecule | target_entity | group
[N-]=[N+]=NCC(=O)Nc1ccc(S[C@@H]2O[C@H](CO)[C@@H](O)[C@H](O)[C@H]2O)nc1 | MCF-7 cells | class 0
CC(=O)OC[C@H]1O[C@@H](Sc2ccc(NC(=O)CN=[N+]=[N-])cn2)[C@H](OC(C)=O)[C@@H](OC(C)=O)[C@H]1OC(C)=O | MCF-7 cells | class 0
C#CCOC(=O)Nc1ccc(S[C@@H]2O[C@H](COC(C)=O)[C@H](OC(C)=O)[C@H](OC(C)=O)[C@H]2OC(C)=O)nc1 | MCF-7 cells | class 0
COc1cccc2c1C(=O)c1c(O)c3c(c(O)c1C2=O)C[C@@](O)(C(=O)CO)C[C@@H]3O[C@H]1C[C@H](N)[C@H](O)[C@H](C)O1 [Doxorubicin, reference compound] | MCF-7 cells | class 1
O=C(Cn1cc(COc2cccc3cccnc23)nn1)Nc1ccc(S[C@@H]2O[C@H](CO)[C@@H](O)[C@H](O)[C@H]2O)nc1 | MCF-7 cells | class 0
Cc1ccc2cccc(OCCCn3cc(CS[C@@H]4O[C@H](CO)[C@H](O)[C@H](O)[C@H]4O)nn3)c2n1 | MCF-7 cells | class 0
CC(=O)OC[C@H]1O[C@@H](SCc2cn(CCCOc3cccc4ccc(C)nc34)nn2)[C@H](OC(C)=O)[C@@H](OC(C)=O)[C@@H]1OC(C)=O | MCF-7 cells | class 0
O=C(Nc1ccc(S[C@@H]2O[C@H](CO)[C@@H](O)[C@H](O)[C@H]2O)nc1)OCc1cn(CCCOc2cccc3cccnc23)nn1 | MCF-7 cells | class 0
CC(=O)OC[C@H]1O[C@@H](SCc2cn(CCCOc3cccc4cccnc34)nn2)[C@H](OC(C)=O)[C@@H](OC(C)=O)[C@H]1OC(C)=O | MCF-7 cells | class 0
Oc1cccc2cccnc12 [Compound 8HQ, 8-hydroxyquinoline] | MCF-7 cells | class 1
